test system: primary human mesenchymal stem cells (hMSCs); assay: Induction of chondrogenesis in hMSCs (Rhodamine B / Nile Red nodule imaging); type: cell-based; settings: maximum activity relative to TGF-β3 (10 ng/mL) positive control, read-out: Max. Activity as % TGF-β3 activity
endpoint.name: Emax (%)

smiles_data=COc1cncc(-c2ccc3[nH]nc(-c4cc5c(-c6ccsc6)nccc5[nH]4)c3c2)c1 endpoint_name=Emax numeric_result=39
smiles_data=Cc1ccncc1-c1ccc2[nH]nc(-c3cc4c(N5CCN(C)CC5)nccc4[nH]3)c2c1 endpoint_name=Emax numeric_result=36
smiles_data=CC(C)CC(=O)Nc1cncc(-c2ccc3[nH]nc(-c4cc5c(-c6ccncc6)nccc5[nH]4)c3c2)c1 endpoint_name=Emax numeric_result=95
smiles_data=CN(C)Cc1cncc(-c2ccc3[nH]nc(-c4cc5c(-c6ccc(F)cc6)nccc5[nH]4)c3c2)c1 endpoint_name=Emax numeric_result=46
smiles_data=O=C(Nc1cncc(-c2ccc3[nH]nc(-c4cc5c(N6CCCCC6)nccc5[nH]4)c3c2)c1)C1CCC1 endpoint_name=Emax numeric_result=34
smiles_data=CC(C)Nc1cncc(-c2ccc3[nH]nc(-c4cc5c(-c6cc(F)cc(CNS(C)(=O)=O)c6)nccc5[nH]4)c3c2)c1 endpoint_name=Emax numeric_result=191
smiles_data=Cc1ncc(-c2ccc3[nH]nc(-c4cc5c(-c6ccncc6)nccc5[nH]4)c3c2)n1C endpoint_name=Emax numeric_result=36

* * *

system: primary human fibroblasts derived from IPF patients (LL29 cells) treated with TGF-β1; assay: Inhibition of the fibrotic process (αSMA staining) in TGF-β1-treated fibroblasts; type: cell-based; details: Fibroblast, 96 h, % αSMA-positive LL29 cells, TGF-β1 20 ng/mL, 4 days
Recorded log10 of EC50 values for a group of compounds are listed next.
endpoint.name: log10 of EC50 (log10 of the value in nM)

smiles_data=CCCCC(=O)Nc1cncc(-c2ccc3[nH]nc(-c4cc5c(N6CCN(C)CC6)nccc5[nH]4)c3c2)c1 numeric_result=3.26
smiles_data=c1cc(-c2ccc3[nH]nc(-c4cc5c(N6CCCCC6)nccc5[nH]4)c3c2)ccn1 numeric_result=2.92
smiles_data=CN(C)Cc1cncc(-c2ccc3[nH]nc(-c4cc5c(-c6cccc(F)c6)nccc5[nH]4)c3c2)c1 numeric_result=3.44
smiles_data=CC(C)(C)C(=O)Nc1cncc(-c2ccc3[nH]nc(-c4cc5c(-c6ccc(F)cc6)nccc5[nH]4)c3c2)c1 numeric_result=2.87
smiles_data=O=C(Nc1cncc(-c2ccc3[nH]nc(-c4cc5c(-c6ccccc6F)nccc5[nH]4)c3c2)c1)C1CCCC1 numeric_result=2.92
smiles_data=CC(C)Nc1cncc(-c2ccc3[nH]nc(-c4cc5c(-c6cc(F)cc(CNS(C)(=O)=O)c6)nccc5[nH]4)c3c2)c1 numeric_result=2.10
smiles_data=CCCC(=O)Nc1cncc(-c2ccc3[nH]nc(-c4cc5c(-c6ccc(F)cc6)nccc5[nH]4)c3c2)c1 numeric_result=2.42
smiles_data=c1cc2[nH]c(-c3n[nH]c4ccc(-c5cncc(CN6CCCCC6)c5)cc34)cc2c(N2CCCCC2)n1 numeric_result=3.52
smiles_data=Fc1ccc(-c2nccc3[nH]c(-c4n[nH]c5ccc(-c6cn[nH]c6)cc45)cc23)cc1 numeric_result=2.21
smiles_data=O=C(Cc1ccccc1)Nc1cncc(-c2ccc3[nH]nc(-c4cc5c(-c6cccc(F)c6)nccc5[nH]4)c3c2)c1 numeric_result=2.80
smiles_data=COc1cncc(-c2ccc3[nH]nc(-c4cc5c(-c6ccc(C)s6)nccc5[nH]4)c3c2)c1 numeric_result=2.65
smiles_data=CCNCc1cncc(-c2ccc3[nH]nc(-c4cc5c(N6CCCCC6)nccc5[nH]4)c3c2)c1 numeric_result=3.16
smiles_data=Cc1ccncc1-c1ccc2[nH]nc(-c3cc4c(-c5cc(F)cc(CNS(C)(=O)=O)c5)nccc4[nH]3)c2c1 numeric_result=2.72
smiles_data=O=C(Cc1ccccc1)Nc1cncc(-c2ccc3[nH]nc(-c4cc5cnccc5[nH]4)c3c2)c1 numeric_result=2.88
